src = patent US20110300156A1

biological target: human tissue factor (TF), membrane-bound on cells (human, UniProt P13726 33-295); assay: cell-based or functional assay
Assay Metric: % max inhibition of FVIIa induced ERK phosphorylation (A431) (%)
Form entry: value (%) — number only.

INPUT: Tell me measured % max inhibition of FVIIa induced ERK phosphorylation (A431) for anti-TF HuMab 109 (antibody, V domains shown, Human monoclonal antibody from HuMab mice) VH: QVQLVESGGGVVQPGRSLRLSCPASGFTFSIYAMHWVRQAPGKGLEWVAVVSNDGYNKYYADSVKGRFTISRDNSKDTLYLQMNSLRAEDTAVYYCARDGQLGRGYFDYWGQGTLVTVSS VL: EIVLTQSPATLSLSPGERAILSCRASQSVSSYLAWYQQKPGQAPRLLIYDASNRATGIPARFSGSGSGTDFTLTISSLEPEDFAVYYCQQRSNWPLTFGGGTKVEIK please.
OUTPUT: 72

INPUT: Tell me measured % max inhibition of FVIIa induced ERK phosphorylation (A431) for anti-TF HuMab 101 (antibody, V domains shown, Human monoclonal antibody from HuMab mice) VH: EVQLLESGGGLVQPGGSLRLSCAASGFTFSNYAMSWVRQAPAKGLDWVSGISGSGVTTYYADSVKGRFTISRDNSKDTLYLQMNSLRAEDTAVYFCAKTPWGYYFDYWGQGILVAVSS VL: DIQMTQSPSSLSASVGDRVTITCRASQGISSWLAWYQQKPEKAPKSLIYAASSLQSGVPSRFSGSGSGTDFTLTISSLQPEDFATYYCQQYNSYPLYTFGQGTKLEIK please.
OUTPUT: 57

INPUT: Tell me measured % max inhibition of FVIIa induced ERK phosphorylation (A431) for anti-TF HuMab 111 (antibody, V domains shown, Human monoclonal antibody from HuMab mice) VH: QVQLVESGGGVVQPGRSLRLSCAGSGFTFNRYAMYWVRQAPGKGLDWVAVISNDGINKYYADSVKGRFTISRDNSKNTLYLQMNSLRAEDTAVYYCARDHTMVRGAFDYWGQGTLVTVSS VL: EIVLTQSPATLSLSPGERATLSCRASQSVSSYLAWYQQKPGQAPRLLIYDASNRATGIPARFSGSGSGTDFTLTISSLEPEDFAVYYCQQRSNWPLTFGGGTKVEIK please.
OUTPUT: 52
